Reported Relative Sub G1 by item:
test system: AGS cell strain; experiment: Effect on cell cycle (propidium iodide staining, FACS, sub G1); type: cell-based; details: mimic 10 nM, 10 uM 5-FU 24 h after transfection, then 48 hours, relative to scrambled control (=1)

Known results for substances:
{"columns": ["SUBSTANCE", "ASSAY_TARGET", "Relative Sub G1"],
 "data": [
  ["BART8-3p: EBV BART miRNA mimic, double stranded RNA; sense SEQ NO: 47, antisense SEQ NO: 48 (sense GUCACAAUCUAUGGGGUCGUAGA; antisense UCUACGACCCCAUAGAUUGUGAC; chemistry not given here)", "AGS cell strain", 0.9616],
  ["BART13-3p: EBV BART miRNA mimic, double stranded RNA; sense SEQ NO: 79, antisense SEQ NO: 80 (sense UGUAACUUGCCAGGGACGGCUGA; antisense UCAGCCGUCCCUGGCAAGUUACA; chemistry not given here)", "AGS cell strain", 0.9813],
  ["BART4-3p: EBV BART miRNA mimic, double stranded RNA; sense SEQ NO: 7, antisense SEQ NO: 8 (sense CACAUCACGUAGGCACCAGGUGU; antisense ACACCUGGUGCCUACGUGAUGUG; chemistry not given here)", "AGS cell strain", 0.755],
  ["BART2-3p: EBV BART miRNA mimic, double stranded RNA; sense SEQ NO: 87, antisense SEQ NO: 88 (sense AAGGAGCGAUUUGGAGAAAAUAAA; antisense UUUAUUUUCUCCAAAUCGCUCCUU; chemistry not given here)", "AGS cell strain", 1.178],
  ["BART11-5p: EBV BART miRNA mimic, double stranded RNA; sense SEQ NO: 61, antisense SEQ NO: 62 (sense UCAGACAGUUUGGUGCGCUAGUUG; antisense CAACUAGCGCACCAAACUGUCUGA; chemistry not given here)", "AGS cell strain", 1.081]
]}

Asked: Let me know recorded Relative Sub G1 for BART10-3p: EBV BART miRNA mimic, double stranded RNA; sense SEQ NO: 59, antisense SEQ NO: 60 (sense UACAUAACCAUGGAGUUGGCUGU; antisense ACAGCCAACUCCAUGGUUAUGUA; chemistry not given here) , thanks.
Given back: 0.8394

Asked: Identify measured Relative Sub G1 corresponding to BART22-3p: EBV BART miRNA mimic, double stranded RNA; sense SEQ NO: 55, antisense SEQ NO: 56 (sense UUACAAAGUCAUGGUCUAGUAGU; antisense ACUACUAGACCAUGACUUUGUAA; chemistry not given here)
Given back: 1.054

Asked: Give reported Relative Sub G1 value for BART14-3p: EBV BART miRNA mimic, double stranded RNA; sense SEQ NO: 83, antisense SEQ NO: 84 (sense UAAAUGCUGCAGUAGUAGGGAU; antisense AUCCCUACUACUGCAGCAUUUA; chemistry not given here)
Given back: 0.8757

Attribution: patent US9243247B2
